Just for reference, patent US7595313B2 is where these values come from.

quantity: melting point

Worked examples, 3 compounds total:
NS(=O)(=O)c1cc2c(cc1C(F)(F)F)NC(c1cc(CO[N+](=O)[O-])cc(CO[N+](=O)[O-])c1)NS2(=O)=O (stereo not shown) = > 113 °C (dec.)
NS(=O)(=O)c1cc2c(cc1Cl)NCN(CCCC(=O)O)S2(=O)=O [Example 53c] = 72 to 78 °C
NS(=O)(=O)c1cc2c(cc1Cl)NC(CCC(CO[N+](=O)[O-])O[N+](=O)[O-])NS2(=O)=O (stereo not shown) = 153 to 155 °C

**Q:** Which melting point value belongs to NS(=O)(=O)c1cc2c(cc1Cl)NCN(Cc1cccc(CO[N+](=O)[O-])c1)S2(=O)=O ?
**A:** 136 to 139 °C (dec.)

**Q:** Which melting point value belongs to NS(=O)(=O)c1cc2c(cc1Cl)N=C(NC(=O)CCCCO[N+](=O)[O-])NS2(=O)=O ?
**A:** 222 to 225 °C

**Q:** Which melting point value belongs to NS(=O)(=O)c1cc2c(cc1Cl)NC1(CCN(C(=O)CCCCO[N+](=O)[O-])CC1)NS2(=O)=O [Example 18b] ?
**A:** 155 °C (dec.)

**Q:** Which melting point value belongs to NS(=O)(=O)c1cc2c(cc1Cl)NCN(CCCCCO[N+](=O)[O-])S2(=O)=O [Example 46b] ?
**A:** 120 to 123 °C

**Q:** Which melting point value belongs to NS(=O)(=O)c1cc2c(cc1Cl)NCN(CC[C@@H](CO[N+](=O)[O-])O[N+](=O)[O-])S2(=O)=O [Example 48b] ?
**A:** 162 to 163 °C

**Q:** Which melting point value belongs to NS(=O)(=O)c1cc2c(cc1Cl)NCN(CCCOc1cc(CO[N+](=O)[O-])cc(CO[N+](=O)[O-])c1)S2(=O)=O [Example 70c] ?
**A:** 70 to 72 °C
